Parameter activity at 10 µM: see the listing below.
Test system: human sebocytes
Experiment: Sebum suppression: 14C-acetate incorporation in cultured human sebocytes, test agent alone or with retinol
Assay type: cell-based
Details: Homo sapiens, 10 μM test compound alone; read-out: % of Control
Value expressed in %; do not type the unit.

Sample answers from the record:
>>> numericresult("O=C(Nc1ccc(OC(F)(F)F)cc1)N1c2ccccc2CCc2ccccc21")
82
>>> numericresult("O=C(CC1c2ccccc2-c2ccccc21)N1CCC(O)(c2ccccc2)CC1")
63
>>> numericresult("CCCN(CCO)C(=O)CC1c2ccccc2-c2ccccc21")
71.1

Asked: Using the record for O=C(Nc1ccc(O)cc1)N1c2ccccc2CCc2ccccc21 , report its activity at 10 µM.
Given back: 41.5

Asked: Using the record for Cc1c(Cl)cccc1NC(=O)N1c2ccccc2CCc2ccccc21 , report its activity at 10 µM.
Given back: 101
